B1: human ACKR4-EYFP [human] / fluorescently labeled human CCL19^Dy649P1 [modified: Dy649P1 (as CoA conjugate) attached site-specifically to the S6-tag by the phosphopantetheinyl transferase Sfp; Dy649P1 (as CoA conjugate) … (parent)
chain 1: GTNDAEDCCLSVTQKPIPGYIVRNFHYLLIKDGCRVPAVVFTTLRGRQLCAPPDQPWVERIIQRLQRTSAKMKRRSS
chain 2: MALEQNQSTDYYYEENEMNGTYDYSQYELICIKEDVREFAKVFLPVFLTIVFVIGLAGNSMVVAIYAYYKKQRTKTDVYILNLAVADLLLLFTLPFWAVNAVHGWVLGKIMCKITSALYTLNFVSGMQFLACISIDRYVAVTKVPSQSGVGKPCWIICFCVWMAAILLSIPQLVFYTVNDNARCIPIFPRYLGTSMKALIQMLEICIGFVVPFLIMGVCYFITARTLMKMPNIKISRPLKVLLTVVIVFIVTQLPYNIVKFCRAIDIIYSLITSCNMSKRMDIAIQVTESIALFHSCLNPILYVFMGASFKNYVMKVAKKYGSWRRQRQSVEEFPFDSEGPTEPTSTFSI

Variants of: B1
Assay: flow cytometry on cells
Details: with fluorescently labeled human CCL19^Dy649P1 [modified: Dy649P1 (as CoA conjugate) attached site-specifically to the S6-tag by the phosphopantetheinyl transferase; 25 nM CCL19Dy649P1 at 8°C; HeLa cells; read off a plot
measure_name: percent of parent

Past entries and their recorded results:
mutant_name: chain 2 S330A
percent of parent: 83 % of wt

mutant_name: chain 2 Y79F
percent of parent: 110 % of wt

mutant_name: chain 2 Y138F
percent of parent: 72 % of wt

mutant_name: chain 2 S236A
percent of parent: 90 % of wt

mutant_name: chain 2 T142A
percent of parent: 90 % of wt

For every item below, please supply its percent of parent.
1. chain 2 T142A T226A
2. chain 2 T226A
3. chain 2 S146A
4. chain 2 S309A S323A S330A
5. chain 2 Y68F

90 % of wt
83 % of wt
85 % of wt
120 % of wt
93 % of wt
